Biological target: Solute carrier family 2, facilitated glucose transporter member 4 (Homo sapiens, UniProt P14672)
Assay: Inhibition of the Glucose Transporter (GLUT4, SLC2A4) as assessed by a FRET based flow cytometry assay using a genetically-encoded biosensor for measuring free glucose (FLII12Pglu-700uDelta6) in HEK293 JumpIN TRex SLC2A4 WT-OE cells (PubChem AID: 1794828)
measured-quantity: EC50 (µM)
Give bare numbers, in µM.

Entry OC[C@H]1OC(O)[C@H](O)[C@@H](O)[C@@H]1O (stereo partly specified) : reported EC50 = ? 860

* * *

Target: Solute carrier family 2, facilitated glucose transporter member 4 (Homo sapiens)
Sequence (P14672 whole entry): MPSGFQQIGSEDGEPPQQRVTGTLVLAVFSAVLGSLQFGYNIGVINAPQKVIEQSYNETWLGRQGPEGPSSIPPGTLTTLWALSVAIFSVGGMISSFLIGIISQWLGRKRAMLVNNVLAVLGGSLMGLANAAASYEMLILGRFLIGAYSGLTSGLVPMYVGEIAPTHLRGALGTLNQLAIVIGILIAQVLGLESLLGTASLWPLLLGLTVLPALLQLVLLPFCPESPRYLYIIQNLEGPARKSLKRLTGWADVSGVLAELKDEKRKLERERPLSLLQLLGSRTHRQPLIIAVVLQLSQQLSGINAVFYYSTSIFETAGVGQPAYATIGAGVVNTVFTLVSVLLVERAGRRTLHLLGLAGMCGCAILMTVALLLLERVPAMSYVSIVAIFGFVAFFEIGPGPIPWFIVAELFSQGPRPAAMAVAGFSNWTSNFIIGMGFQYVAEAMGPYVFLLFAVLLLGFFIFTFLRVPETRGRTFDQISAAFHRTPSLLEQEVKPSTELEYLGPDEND
Assay: Inhibition of the Glucose Transporter (GLUT4, SLC2A4) as assessed by a FRET based flow cytometry assay using a genetically-encoded biosensor for measuring free glucose (FLII12Pglu-700uDelta6) in HEK293 JumpIN TRex SLC2A4 WT-OE cells (PubChem AID: 1794828)
Kindly supply the reported IC50 values for the records listed here.
Numbers only, in µM.

compound="Cc1c(NC(=O)c2cc(C(N)=O)nc3cc(F)ccc23)c(C(F)(F)F)nn1Cc1ccc(C#N)cc1 [BAY-876]" test_value=5.5

Next item in the queue.
Entry O=C(Oc1cccc(F)c1OC(=O)c1cccc(O)c1)c1cccc(O)c1 : reported IC50 = ? 2.5
